Hello, the source for this data is the supplement of paper PMC3545927, in case you need it.

# TARGET DESC: furin, P09958;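 note: purified furin at 1:10 enzyme:substrate in 50 mM HEPES pH 7.5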
# Sequence (P09958 whole entry): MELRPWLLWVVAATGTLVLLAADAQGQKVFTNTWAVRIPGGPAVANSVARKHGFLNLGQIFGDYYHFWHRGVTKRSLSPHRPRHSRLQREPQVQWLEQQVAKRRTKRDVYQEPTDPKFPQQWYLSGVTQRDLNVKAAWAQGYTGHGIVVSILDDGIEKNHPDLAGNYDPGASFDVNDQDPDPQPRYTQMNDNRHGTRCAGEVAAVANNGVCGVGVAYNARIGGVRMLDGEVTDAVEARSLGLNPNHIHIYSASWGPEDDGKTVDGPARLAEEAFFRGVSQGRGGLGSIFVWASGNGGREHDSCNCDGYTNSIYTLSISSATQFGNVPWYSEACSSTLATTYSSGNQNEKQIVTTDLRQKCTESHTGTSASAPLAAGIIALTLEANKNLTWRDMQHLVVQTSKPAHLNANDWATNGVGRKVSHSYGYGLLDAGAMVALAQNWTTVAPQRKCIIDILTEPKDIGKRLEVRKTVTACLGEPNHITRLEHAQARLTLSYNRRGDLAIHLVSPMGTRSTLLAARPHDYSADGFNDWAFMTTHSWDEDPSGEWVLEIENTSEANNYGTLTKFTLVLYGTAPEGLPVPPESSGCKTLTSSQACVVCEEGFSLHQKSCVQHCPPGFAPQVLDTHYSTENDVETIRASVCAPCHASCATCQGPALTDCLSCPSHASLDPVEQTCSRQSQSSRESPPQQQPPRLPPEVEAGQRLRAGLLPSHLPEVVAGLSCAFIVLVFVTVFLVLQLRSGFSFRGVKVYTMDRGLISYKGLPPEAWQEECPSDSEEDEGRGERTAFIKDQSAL
# METHOD SUMMARY: furin cleavage Z-score vs untreated control; higher = more cleavage, active = 3.5 or more, inactive = 1 or less, 8 variable residues between constant flanks
# CONDITION LABEL: 15 min
The list shows a part of the results. No count for the full screen is at hand.
Could you please pick one outcome from this set? active, inactive

Some entries whose results are on file:
ITEM SEQUENCE	ANSWER LABEL
CASKRRSRRQAGNASASA [FS-1412]	active
CAHQWISSECAGNASASA [HC1141]	inactive
CASKRRARRQAGNASASA [FS-1487]	active
CAWTTQGCNCAGNASASA [HC310]	inactive
CARAFTEAMTAGNASASA [HC1539]	inactive

Query :: Assay result, entry CAVDYPYRLWAGNASASA [HC465] — outcome?
Result :: inactive
